Every entry's value here was drawn from the supplement of paper PMC10567573.

B1: FBXO3 (parent)
chain: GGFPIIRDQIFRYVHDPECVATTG

variants of: B1; experiment: protein stability index of a GFP-peptide fusion (GPS, HEK-293T) (PSI 1-6); higher = more stable; conditions: c terminus: a fixed tail appended;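 further: lentivirally expressed fusions sorted by FACS into six bins by GFP to DsRed ratio, PSI derived from sequencing read proportions per bin multiplied by bin number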
// values below are reported protein stability index
The answer should be written as a number, with no unit following it.

{"sequenceCode": "GGFPIYRDQIFRYVHDPECVATTG", "protein stability index": 1.99}

protein stability index lookup needed for `GGFPIIRDQIFRYVHDPECVATTL` , thanks. 1.96

What value of protein stability index has been recorded for this entry: `GGFPIIRDQIFRYVHDPEDVATTG` 2.49

Entry `GGFPIIRYQIFRYVHDPECVATTG` has what protein stability index? 3.32

Record request: protein stability index value, item `GGFGIIRDQIFRYVHDPECVATTG` 2.33

Which protein stability index value belongs to `GGFPIIRDQIFRYVHDPECVATTR` ? 2.22

Need protein stability index of `GGFAIIRDQIFRYVHDPECVATTG` , thanks. 1.66
